Please find below Ki data on Receptor-interacting serine/threonine-protein kinase 1 (Homo sapiens, UniProt Q13546) compiled from the literature.
metric: Ki (nM)

Consider the worked cases shown below.
INSERT INTO measurements (compound, obs_value) VALUES
  ('O=C(c1nc2n(n1)[C@H](c1ccccc1)C[C@@H]2F)N1CCC(Cc2ccccc2)C1 (mixture of isomers)', 30),
  ('O=C(c1nc2n(n1)[C@H](c1ccccc1)C[C@@H]2F)N1CCc2cnccc2C1 (racemic)', 290),
  ('CCn1cc2c(cc1=O)N(C)C(=O)[C@@H](NC(=O)c1ncn(Cc3ccccc3F)n1)CC2 (single isomer, unassigned)', 110),
  ('CC1([C@@H](O)c2nc3n(n2)[C@H](c2ccccc2)C[C@@H]3F)CC1 (single isomer, unassigned)', 350);

a: COC[C@@H]1C[C@H]1c1nc2n(n1)[C@H](c1ccccc1)C[C@@H]2F (racemic)
b: O=C(c1nc2n(n1)CCC2c1ccccc1)N1CC(F)(F)C1 (racemic)
c: [O-][S@@+](c1nc2n(n1)[C@H](c1ccccc1Cl)CC2)C(F)F
Could you please order the items by Ki, going from the lowest number to the highest? API: response body holds the labels in the requested order.
c, b, a
(c: 50 nM, b: 205 nM, a: 910 nM)

---

// molecules with Ki on Receptor-interacting serine/threonine-protein kinase 1 (Homo sapiens), multi-source literature
metric: Ki (nM)

Past entries and their recorded results:
INSERT INTO measurements (molecule, obs_value) VALUES
  ('CCS(=O)(=O)c1nc2n(n1)C(c1ccccc1)CC2 (racemic)', 864),
  ('N#CCc1cnn(-c2nc3n(n2)[C@H](c2ccccc2)C[C@@H]3F)c1 (single isomer, unassigned)', 260),
  ('Cc1ncnn1-c1nc2n(n1)[C@H](c1ccccc1)C[C@@H]2F (single isomer, unassigned)', 70);

a: CN1C(=O)[C@@H](NC(=O)c2ncn(Cc3ccccc3)n2)CCc2cc(=O)n(C)cc21 (single isomer, unassigned)
b: O=S(=O)(c1nc2n(n1)[C@H](c1ccccc1)C[C@@H]2F)[C@H]1CC1(F)F
c: O=S(=O)(c1nc2n(n1)[C@H](c1c(F)cccc1F)C[C@@H]2F)C(F)F (single isomer, unassigned)
d: O=S(=O)(c1nc2n(n1)[C@H](c1c(F)cccc1F)C[C@@H]2F)C1CC1 (single isomer, unassigned)
Write the entries in order, lowest recorded Ki first. Answer by listing the labels in the order asked for.
b, d, c, a
(b: 3 nM, d: 5 nM, c: 34 nM, a: 173 nM)

1: O=C(c1cc2n(n1)C(c1ccccc1)CC2)N1CC(F)(F)C1 (racemic)
2: O=C(c1nc2n(n1)C(c1ccccc1)CC2(F)F)N1CC(F)(F)C1 (racemic)
3: F[C@@H]1C[C@H](c2ccccc2)n2nc(CCC(F)(F)F)nc21 (single isomer, unassigned)
4: N#CC[S+]([O-])c1nc2n(n1)[C@H](c1ccccc1)C[C@@H]2F (stereo partly drawn)
5: O=C(c1nc2n(n1)[C@H](c1ccccc1)C[C@@H]2F)N1CC(F)(F)CC1CO (mixture of isomers)
Hey, quick one: sort these by Ki, largest value first please. A ranking is expressed here by listing the labels in the requested order.
5, 3, 1, 2, 4

I: O=S(=O)(c1nc2n(n1)[C@H](c1ccccc1)C[C@@H]2F)C1(F)CC1 (single isomer, unassigned)
II: Cc1nn(-c2nc3n(n2)[C@H](c2ccccc2)C[C@@H]3F)c(N)c1C#N (single isomer, unassigned)
III: CC1(C)CC1c1nc2n(n1)[C@H](c1ccccc1)C[C@@H]2F (stereo partly drawn)
Endpoint returns the given molecules ordered by ascending Ki. Answer by naming the labels in the order asked.
I, III, II

a: N#CCS(=O)(=O)c1nc2n(n1)[C@H](c1ccccc1)C[C@@H]2F (single isomer, unassigned)
b: O=S(=O)(c1nc2n(n1)[C@H](c1ccccc1)C[C@@H]2F)C(F)F (single isomer, unassigned)
Which entry has a larger number for Ki, a or b ? Pick one; state its label.
a
(a: 32 nM, b: 5 nM)
